# target_or_test_system: Human M2 PK (Homo sapiens)
# Construct: used as a template to generate the full-length human M2 PK enzyme; His tag (pET-28a(+) vector) (N); made in house; host or cells: E. coli BL-21 (DE3)
# Sequence (P14618 whole entry): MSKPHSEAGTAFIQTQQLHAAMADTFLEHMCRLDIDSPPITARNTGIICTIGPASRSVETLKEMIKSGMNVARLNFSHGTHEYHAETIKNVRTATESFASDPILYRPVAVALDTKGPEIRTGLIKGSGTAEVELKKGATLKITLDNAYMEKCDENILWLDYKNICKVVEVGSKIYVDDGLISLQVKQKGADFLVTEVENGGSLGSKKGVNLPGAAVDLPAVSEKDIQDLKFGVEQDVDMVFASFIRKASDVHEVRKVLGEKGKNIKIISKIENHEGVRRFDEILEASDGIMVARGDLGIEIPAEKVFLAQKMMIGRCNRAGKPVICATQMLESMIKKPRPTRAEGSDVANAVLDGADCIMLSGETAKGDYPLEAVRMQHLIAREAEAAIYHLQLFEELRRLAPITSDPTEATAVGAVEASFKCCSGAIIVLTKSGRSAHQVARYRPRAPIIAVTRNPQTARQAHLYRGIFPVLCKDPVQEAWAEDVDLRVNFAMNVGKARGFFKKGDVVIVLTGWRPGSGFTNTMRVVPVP
# protocol_notes: Human PK selectivity, LDH-coupled enzyme assay
# Format: biochemical
# condition_parameters: at 10 μM; read-out: % Inhibition Human M2
Quick reference for inhibition at 10 µM among some compounds
// units = %; emit number, no label

>>> experimental_result("Brc1ccc2c(c1)cc(-c1cc3ccc(Br)cc3[nH]1)n2CCN1CCOCC1 [Compound 20b]")
3.5
>>> experimental_result("COc1cc(-c2cc3ccccc3[nH]2)ccc1-c1cc2ccc(Br)cc2[nH]1 [Compound 33e]")
14.6
>>> experimental_result("Brc1ccc2[nH]c(-c3cc4cc(Br)ccc4[nH]3)cc2c1 [Compound 10i, 5,5′-Bibromo-1H,1′H-2,2′-biindole]")
0.5

The compound listed as OCCn1c(-c2cc3ccc(Br)cc3[nH]2)cc2cc(Br)ccc21 [Compound 17] has a reported inhibition at 10 µM of 12.1

###

# target_or_test_system: Human L PK (Homo sapiens)
# Construct: His tag; made in house; host or cells: E. coli BL-21 (DE3); construct a gift of Dr. L. Cantley
# Sequence (P30613 1-543 isoform P30613-2): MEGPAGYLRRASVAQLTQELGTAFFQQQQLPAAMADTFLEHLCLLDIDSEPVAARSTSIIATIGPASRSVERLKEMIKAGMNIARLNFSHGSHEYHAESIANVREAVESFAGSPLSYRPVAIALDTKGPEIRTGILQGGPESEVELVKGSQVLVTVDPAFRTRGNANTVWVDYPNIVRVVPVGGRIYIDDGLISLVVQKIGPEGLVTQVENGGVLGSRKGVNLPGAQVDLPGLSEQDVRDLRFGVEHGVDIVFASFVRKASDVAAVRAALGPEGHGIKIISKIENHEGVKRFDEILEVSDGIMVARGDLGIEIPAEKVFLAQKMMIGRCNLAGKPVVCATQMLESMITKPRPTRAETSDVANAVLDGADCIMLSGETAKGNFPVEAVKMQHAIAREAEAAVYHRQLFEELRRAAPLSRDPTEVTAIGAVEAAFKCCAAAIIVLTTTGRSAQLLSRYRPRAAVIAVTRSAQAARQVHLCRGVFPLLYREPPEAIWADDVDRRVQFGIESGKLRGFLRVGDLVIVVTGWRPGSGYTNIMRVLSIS
# protocol_notes: Human PK selectivity, LDH-coupled enzyme assay
# Assay type: biochemical
# condition_parameters: at 10 μM; read-out: % Inhibition Human L
value_kind: inhibition at 10 µM (%)
// units = %; emit number, no label

>>> experimental_result("Cn1c(-c2cc3ccc(Br)cc3[nH]2)cc2cc(Br)ccc21 [Compound 12a]")
2.8
>>> experimental_result("CN1CCN(CCn2c(-c3cc4ccc(Br)cc4[nH]3)cc3cc(Br)ccc32)CC1 [Compound 20a]")
16.8
>>> experimental_result("Brc1ccc2[nH]c(-c3cc4ccc(Br)cc4[nH]3)cc2c1 [Compound 10c, 5,6-Bibromo-1H,1′H-2,2′-biiindole]")
6.1
>>> experimental_result("Brc1ccc2cc(-c3cc4cc(Br)c(Br)cc4[nH]3)[nH]c2c1 [Compound 10k, 5,6,6′-Tribromo-1H,1′H-2,2′-biindole]")
26.8
>>> experimental_result("OCCn1c(-c2cc3ccc(Br)cc3[nH]2)cc2cc(Br)ccc21 [Compound 17]")
6.8

The compound listed as Brc1ccc2cc(/C=C/c3cc4ccccc4[nH]3)[nH]c2c1 [Compound 27a] has a reported inhibition at 10 µM of 12.9

The compound listed as Brc1ccc2cc(-c3cc4ccccc4o3)[nH]c2c1 [Compound 22b, 2-(Benzofuran-2-yl)-6-bromo-1H-indole] has a reported inhibition at 10 µM of -6

The compound listed as Brc1ccc2cc(-c3nc4ccccc4s3)[nH]c2c1 [Compound 22a] has a reported inhibition at 10 µM of 7.8

###

Quick reference for inhibition at 10 µM among some molecules
# target_or_test_system: Human L PK (Homo sapiens)
# Construct: His tag; made in house; host or cells: E. coli BL-21 (DE3); construct a gift of Dr. L. Cantley
# protocol_notes: Human PK selectivity, LDH-coupled enzyme assay
# Assay type: biochemical
# condition_parameters: at 10 μM; read-out: % Inhibition Human L
// units = %; emit number, no label

# example entries with known answers
>>> experimental_result("Brc1ccc2cc(CCc3cc4ccc(Br)cc4[nH]3)[nH]c2c1 [Compound 28a, 1,2-bis(6-bromo-1H-indol-2-yl)ethane]")
9.7
>>> experimental_result("Brc1ccc2[nH]c(-c3cc4cc(Br)ccc4[nH]3)cc2c1 [Compound 10i, 5,5′-Bibromo-1H,1′H-2,2′-biindole]")
9.8
>>> experimental_result("Brc1ccc2c(c1)cc(-c1cc3ccc(Br)cc3[nH]1)n2CCN1CCOCC1 [Compound 20b]")
32.1
>>> experimental_result("Brc1ccc2cc(-c3cc4ccc(Br)cc4[nH]3)[nH]c2c1 [Compound 10b, 6,6′-Dibromo-1H,1′H-2,2′-biindole]")
7.9
>>> experimental_result("Brc1ccc2[nH]c(C#Cc3cc4ccc(Br)cc4[nH]3)cc2c1 [Compound 25c]")
14

Kindly review the next molecule as well.
The molecule listed as COc1cc(-c2cc3ccccc3[nH]2)ccc1-c1cc2ccc(Br)cc2[nH]1 [Compound 33e] has a reported inhibition at 10 µM of 4.3

###

Quick reference for MIC among some compounds
# System: S. aureus ATCC 29213
# protocol_notes: In vitro susceptibility, broth microdilution MIC
# Type: cell-based, Staphylococcus aureus
# condition_parameters: Table 8; tested at least in duplicate, differing values all given
// units = µg/mL; emit number, no label

# example entries with known answers
>>> experimental_result("COC(=O)c1c(/C=C/c2ccc(Cl)cc2)[nH]c2cc(Br)ccc12")
2
>>> experimental_result("O=C(c1c(CCc2ccc(Cl)cc2)[nH]c2cc(Br)ccc12)C(F)(F)F")
1
>>> experimental_result("Clc1cc(Cl)cc(/C=C/c2cc3ccc(Br)cc3[nH]2)c1")
8
>>> experimental_result("O=C(c1c(/C=C/c2ccc(Cl)cc2)[nH]c2cc(Br)ccc12)C(F)(F)F")
2
>>> experimental_result("O=C(c1c(-c2cc3ccccc3[nH]2)[nH]c2cc(Br)ccc12)C(F)(F)F")
1

Kindly review the next compound as well.
The compound listed as Clc1ccc(CCc2nc3ccc(Br)cc3[nH]2)cc1 has a reported MIC of 32

###

# Tested on: S. aureus ATCC 29213
# protocol_notes: In vitro susceptibility, broth microdilution MIC
# Assay type: cell-based, Staphylococcus aureus
# condition_parameters: Staphylococcus aureus, ATCC29213, Tables 1-6 and text; minimum concentration to give >98% inhibition of growth; read-out: MIC
value_kind: MIC

# example entries with known answers
>>> experimental_result("Brc1ccc2cc(-c3ccc(-c4cc5ccccc5[nH]4)cc3)[nH]c2c1 [Compound 33c]")
"> 64 µg/mL"
>>> experimental_result("Brc1ccc2cc(-c3cc4ccc(Br)cc4[nH]3)[nH]c2c1 [Compound 10b, 6,6′-Dibromo-1H,1′H-2,2′-biindole]")
"16 µg/mL"
>>> experimental_result("Brc1ccc2cc(-c3cc4ccccc4o3)[nH]c2c1 [Compound 22b, 2-(Benzofuran-2-yl)-6-bromo-1H-indole]")
"> 64 µg/mL"
>>> experimental_result("CC(=O)c1c(CCc2ccccc2)[nH]c2cc(Br)ccc12 [Compound 39a]")
"> 64 µg/mL"
>>> experimental_result("COC(=O)c1c(-c2cc3cc(Br)c(Br)cc3[nH]2)[nH]c2cc(Br)c(Br)cc12 [Compound 39d]")
"4 µg/mL"

The compound listed as OCCn1c(-c2cc3ccc(Br)cc3[nH]2)cc2cc(Br)ccc21 [Compound 17] has a reported MIC of 2 µg/mL

The compound listed as Brc1ccc2[nH]c(-c3nc4ccccc4s3)cc2c1 [Compound 22d] has a reported MIC of > 64 µg/mL

The compound listed as COc1c(Br)cccc1C(=O)Nc1nc2ccc(Br)cc2s1 [Compound 84] has a reported MIC of > 64 µg/mL

###

# System: K. pneumoniae (C238)
# protocol_notes: Broth microdilution MIC
# Type: cell-based
# condition_parameters: Klebsiella pneumoniae; K. pneumoniae (C238); read-out: MIC (μg/mL) A
value_kind: MIC (µg/mL)
// units = µg/mL; emit number, no label

# example entries with known answers
>>> experimental_result("COC(=O)c1c(/C=C/c2ccc(Cl)cc2)[nH]c2cc(Br)ccc12 [Compound 124]")
2
>>> experimental_result("O=C(c1c(-c2cc3cc(Cl)ccc3[nH]2)[nH]c2cc(Br)ccc12)C(F)(F)F [Compound 178]")
1

The compound listed as O=C(c1c(CCc2ccc(Cl)cc2)[nH]c2cc(Br)ccc12)C(F)(F)F [Compound 167] has a reported MIC of 1

The compound listed as COc1cccc(OC)c1C(=O)N[C@@H]1C(=O)N2[C@@H]1SC(C)(C)[C@@H]2C(=O)O [Methicillin, methicillin, reference compound] has a reported MIC of 4

The compound listed as O=C(O)c1c(/C=C/c2ccc(Cl)cc2)[nH]c2cc(Br)ccc12 [Compound 123] has a reported MIC of 32

###

Quick reference for pIC50 among some compounds
# target_or_test_system: MRSA PK (Staphylococcus aureus, UniProt Q6GG09)
# Construct: His tag (pET-28a(+) vector) (N); made in house; host or cells: E. coli BL-21 (DE3)
# Sequence (Q6GG09 whole entry): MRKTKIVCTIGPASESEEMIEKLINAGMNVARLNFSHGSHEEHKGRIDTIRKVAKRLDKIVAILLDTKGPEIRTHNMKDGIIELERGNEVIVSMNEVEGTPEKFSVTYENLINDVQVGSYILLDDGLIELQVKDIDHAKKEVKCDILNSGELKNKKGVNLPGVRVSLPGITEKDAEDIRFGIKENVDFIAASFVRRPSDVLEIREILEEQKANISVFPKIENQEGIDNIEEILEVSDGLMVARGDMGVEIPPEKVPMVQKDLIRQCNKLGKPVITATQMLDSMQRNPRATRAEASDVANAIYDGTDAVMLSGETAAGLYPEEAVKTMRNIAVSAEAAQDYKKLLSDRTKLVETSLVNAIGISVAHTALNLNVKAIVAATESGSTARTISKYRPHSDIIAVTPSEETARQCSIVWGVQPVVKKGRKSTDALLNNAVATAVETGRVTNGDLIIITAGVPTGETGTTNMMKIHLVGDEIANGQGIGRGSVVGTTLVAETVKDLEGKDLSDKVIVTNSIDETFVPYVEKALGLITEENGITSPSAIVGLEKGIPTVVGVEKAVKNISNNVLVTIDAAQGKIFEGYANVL
# protocol_notes: MRSA PK activity, continuous LDH-coupled assay
# Format: biochemical, S. aureus (MRSA strain Sanger 252)
pIC50: −log10 of the molar value.

>>> experimental_result("Brc1ccc2cc(CCc3cn4c(n3)CCCC4)[nH]c2c1")
"< 4.00"
>>> experimental_result("O=C(Nc1ccc(Br)cc1)c1[nH]c2cc(Br)ccc2c1C(=O)O")
"> 7.30"
>>> experimental_result("Clc1ccc(/C=C/c2cc3ccc(Br)cc3[nH]2)cn1")
"> 7.30"
>>> experimental_result("COC(=O)c1c(C(=O)Nc2ccc(OC)cc2)[nH]c2cc(Br)ccc12")
"> 7.30"

The compound listed as O=C(c1c(/C=C/c2ccc(Br)cn2)[nH]c2cc(Br)ccc12)C(F)(F)F has a reported pIC50 of < 6.00

The compound listed as Cc1ccc(/C=C/c2cc3ccc(Br)cc3[nH]2)cn1 has a reported pIC50 of < 6.00

The compound listed as Brc1ccc(CCc2cc3ccc(Br)cc3[nH]2)cc1 [Compound 37b, 6-bromo-2-(4-bromophenethyl)-1H-indole] has a reported pIC50 of 6.73
